The origin of these recorded values is patent US20240041854A1.

For each record, write down the corresponding Virus amount.
system: human coronavirus HCoV-229E; type: cell-based; set-up: unit not given here; settings: 25 μM test substance, MRC-5 cells, qPCR
Keep the answer to the number alone.

Item COc1cc(OCc2ncc(C(F)(F)F)cc2F)ccc1-c1nc(-c2ccc(F)nc2)[nH]c1Br was tested on human coronavirus HCoV-229E; the reported Virus amount is 4.E+04

Reported Virus amount (human coronavirus HCoV-229E) for entry Fc1ccc(-c2nc(-c3ccc(OCc4ncc(C(F)(F)F)cc4F)cc3Cl)c(Cl)[nH]2)cn1 is 2.E+05

Item NC(=O)c1nccnc1O [Comparative compound, 3-Hydroxypyrazine-2-carboxamide, reference compound] ; assay system human coronavirus HCoV-229E; Virus amount reported as 2.E+07

Considering COc1cc(OCc2ncc(C(F)(F)F)cc2F)ccc1-c1nc(-c2ccc(F)nc2)[nH]c1Cl , its Virus amount with human coronavirus HCoV-229E was recorded as 4.E+02

----------
Answer each item with its documented Virus amount.
test system: human coronavirus HCoV-229E; type: cell-based; design: unit not given here; details: 50 μM test substance, MRC-5 cells, qPCR
Provide a numeric answer; units are not to be included.

The reported Virus amount of the molecule Fc1ccc(-c2nc(-c3ccc(OCc4ncc(C(F)(F)F)cc4F)cc3Cl)c(Cl)[nH]2)cn1 [Compound Z] was 4.E+04

For record COc1cc(OCc2ncc(C(F)(F)F)cc2F)ccc1-c1nc(-c2ccc(F)nc2)[nH]c1Br [Compound Y] the listed Virus amount is 3.E+04

The molecule NC(=O)c1nccnc1O [Comparative compound, 3-Hydroxypyrazine-2-carboxamide, reference compound] showed Virus amount equal to 2.E+07

// sample COc1cc(OCc2ncc(C(F)(F)F)cc2F)ccc1-c1nc(-c2ccc(F)nc2)[nH]c1Cl [Compound X] , its Virus amount was 3.E+03
